# measured on: T1, cynomolgus PVRIG on cells (cynomolgus, UniProt A0A2K5WVV8 41-322)
# T1 construct: whole, on cells; also called cPVRIG; expi cPVRIG cells
# T1 sequence: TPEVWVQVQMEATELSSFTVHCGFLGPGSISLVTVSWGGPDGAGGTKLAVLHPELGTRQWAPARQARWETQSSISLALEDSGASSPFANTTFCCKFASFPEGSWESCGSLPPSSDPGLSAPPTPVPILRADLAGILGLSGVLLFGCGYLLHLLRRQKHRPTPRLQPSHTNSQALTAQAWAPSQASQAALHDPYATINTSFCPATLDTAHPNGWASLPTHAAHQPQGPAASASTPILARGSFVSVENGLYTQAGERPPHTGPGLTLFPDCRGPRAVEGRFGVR
# protocol description: FACS, cyno PBMC, CD8+ T cells, 10ug/ml
readout name: gMFIr Cyno CD8+ T cells

>>> measured_result("CHA.7.524 (antibody, V domains shown) VH: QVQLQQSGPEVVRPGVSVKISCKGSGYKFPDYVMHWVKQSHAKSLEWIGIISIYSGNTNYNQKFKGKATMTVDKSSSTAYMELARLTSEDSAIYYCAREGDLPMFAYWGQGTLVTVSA VL: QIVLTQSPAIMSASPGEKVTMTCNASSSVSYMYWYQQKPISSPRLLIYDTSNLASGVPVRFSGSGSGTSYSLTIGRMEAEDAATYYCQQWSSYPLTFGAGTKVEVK")
2.02
>>> measured_result("CHA.7.543 (antibody, V domains shown) VH: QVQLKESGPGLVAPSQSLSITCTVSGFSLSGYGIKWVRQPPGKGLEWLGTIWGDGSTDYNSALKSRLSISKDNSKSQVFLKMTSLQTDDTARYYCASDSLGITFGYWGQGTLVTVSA VL: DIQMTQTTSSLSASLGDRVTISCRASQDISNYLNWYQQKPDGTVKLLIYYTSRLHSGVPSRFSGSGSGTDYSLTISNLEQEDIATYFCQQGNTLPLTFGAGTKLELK")
1.39
>>> measured_result("CHA.7.537 (antibody, V domains shown) VH: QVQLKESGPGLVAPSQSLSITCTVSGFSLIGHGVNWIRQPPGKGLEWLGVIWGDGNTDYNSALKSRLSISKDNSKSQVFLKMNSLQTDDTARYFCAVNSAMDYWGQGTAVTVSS VL: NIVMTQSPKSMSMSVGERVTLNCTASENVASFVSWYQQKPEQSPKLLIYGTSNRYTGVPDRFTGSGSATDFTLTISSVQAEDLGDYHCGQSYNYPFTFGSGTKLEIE")
1.19
>>> measured_result("CHA.7.548 (antibody, V domains shown) VH: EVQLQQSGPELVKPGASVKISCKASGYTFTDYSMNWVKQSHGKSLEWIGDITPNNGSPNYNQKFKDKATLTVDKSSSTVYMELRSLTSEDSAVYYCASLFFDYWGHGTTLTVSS VL: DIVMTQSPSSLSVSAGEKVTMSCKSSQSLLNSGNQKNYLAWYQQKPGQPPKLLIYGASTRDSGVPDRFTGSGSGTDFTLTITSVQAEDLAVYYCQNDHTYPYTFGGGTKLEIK")
1.09
